ASSAY_PROCEDURE: Volume of distribution at steady state in mouse at 1 mg/kg, iv
Type: ADME, organism-based
Parameters: dose 1 mg/kg, route intravenous
RECORDED_CONDITIONS: in vivo, read-out: Vdss
ATTRIBUTE_MEASURED: Vd (L/kg)
Write it as a number; the unit L/kg goes unstated.

[in] Specify Vd for CN(C[C@@H]1COCCO1)S(=O)(=O)Nc1ccc2ccc3ncc(-c4cnn(C)c4)cc3c(=O)c2c1 [MK-2461] and stop.
[out] 3.2

* * *

ASSAY_PROCEDURE: Lipophilicity, log P of the compound
Format: physicochemical
RECORDED_CONDITIONS: octanol/water
I'd appreciate it if you could supply logP values for the items below.
The answer should be a number; do not append a unit.

[in] # return recorded logP for entry CN(C[C@@H]1COCCO1)S(=O)(=O)Nc1ccc2ccc3ncc(-c4cnn(C)c4)cc3c(=O)c2c1
[out] 2.7

[in] Fill in logP for record CS(=O)(=O)Nc1ccc2ccc3ncc(-c4ccccc4)cc3c(=O)c2c1
[out] 3.15

* * *

ASSAY_PROCEDURE: Antiproliferative activity against human GTL16 cells after 72 hrs
RECORDED_CONDITIONS: GTL 16, 72 h
ATTRIBUTE_MEASURED: IC50 (µM)
Please state the figure in µM; there is no need to write the unit.

[in] Fill in IC50 for record Cn1cc(-c2cnc3ccc4ccc(NS(N)(=O)=O)cc4c(=O)c3c2)cn1
[out] 0.99

[in] Identify measured IC50 associated with CN(C)CCCn1cc(-c2cnc3ccc4ccc(NS(=O)(=O)N(C)C)cc4c(=O)c3c2)cn1
[out] 1.1

[in] Query IC50 for CN([C@H]1CCOC1)S(=O)(=O)Nc1ccc2ccc3ncc(-c4cnn(C)c4)cc3c(=O)c2c1
[out] 0.57

[in] Consider the compound CCN(CC)S(=O)(=O)Nc1ccc2ccc3ncc(-c4cnn(C)c4)cc3c(=O)c2c1 and give its recorded IC50.
[out] 2.2

[in] Please report the measured IC50 for CN(Cc1cnccn1)S(=O)(=O)Nc1ccc2ccc3ncc(-c4cnn(C)c4)cc3c(=O)c2c1
[out] 1.1

[in] Please report IC50 for the following compound: Cn1cc(-c2cnc3ccc4ccc(NS(=O)(=O)N5CC(F)C5)cc4c(=O)c3c2)cn1
[out] 2.4

[in] Give the measured IC50 for CCN1CCC(n2cc(-c3cnc4ccc5ccc(NS(=O)(=O)N(C)C)cc5c(=O)c4c3)cn2)CC1
[out] 0.055

[in] Indicate the recorded IC50 value for this compound: Cn1cc(-c2cnc3ccc4ccc(NS(=O)(=O)N5CCOCC5)cc4c(=O)c3c2)cn1
[out] 11

[in] Give the measured IC50 for Cn1cc(-c2cnc3ccc4ccc(NS(=O)(=O)N5CCC5)cc4c(=O)c3c2)cn1
[out] 1.1

* * *

ASSAY_PROCEDURE: Antiproliferative activity against human GTL16 cells after 72 hrs
RECORDED_CONDITIONS: GTL 16, 72 h
pIC50: −log10 of the molar value.
Give criterion met when the value for pIC50 is at least 6. Give criterion not met when it is less.

[in] I'd appreciate it if you could say whether CN(C)S(=O)(=O)Nc1ccc2ccc3ncc(-c4cnn(CCCO)c4)cc3c(=O)c2c1 has pIC50 at least equal to 6.
[out] criterion met

[in] Tell me whether pIC50 is at least 6 here: CN(C[C@H]1COCCO1)S(=O)(=O)Nc1ccc2ccc3ncc(-c4cnn(C)c4)cc3c(=O)c2c1
[out] criterion not met

[in] Given the entry CN(C)S(=O)(=O)Nc1ccc2ccc3ncc(-c4cnn(CC(F)CO)c4)cc3c(=O)c2c1 (racemic) , answer whether its pIC50 meets or surpasses 6.
[out] criterion met

[in] I'd appreciate it if you could say whether CN(C)S(=O)(=O)Nc1ccc2ccc3ncc(-c4cnn(CCF)c4)cc3c(=O)c2c1 has pIC50 at least equal to 6.
[out] criterion met

[in] I'd appreciate it if you could say whether CS(=O)(=O)Nc1ccc2ccc3ncc(-c4ccccc4)cc3c(=O)c2c1 has pIC50 at least equal to 6.
[out] criterion not met

* * *

TESTED_SYSTEM: Hepatocyte growth factor receptor (Homo sapiens, UniProt P08581, M1250T)
Sequence (P08581 25-1390 M1250T limits assumed): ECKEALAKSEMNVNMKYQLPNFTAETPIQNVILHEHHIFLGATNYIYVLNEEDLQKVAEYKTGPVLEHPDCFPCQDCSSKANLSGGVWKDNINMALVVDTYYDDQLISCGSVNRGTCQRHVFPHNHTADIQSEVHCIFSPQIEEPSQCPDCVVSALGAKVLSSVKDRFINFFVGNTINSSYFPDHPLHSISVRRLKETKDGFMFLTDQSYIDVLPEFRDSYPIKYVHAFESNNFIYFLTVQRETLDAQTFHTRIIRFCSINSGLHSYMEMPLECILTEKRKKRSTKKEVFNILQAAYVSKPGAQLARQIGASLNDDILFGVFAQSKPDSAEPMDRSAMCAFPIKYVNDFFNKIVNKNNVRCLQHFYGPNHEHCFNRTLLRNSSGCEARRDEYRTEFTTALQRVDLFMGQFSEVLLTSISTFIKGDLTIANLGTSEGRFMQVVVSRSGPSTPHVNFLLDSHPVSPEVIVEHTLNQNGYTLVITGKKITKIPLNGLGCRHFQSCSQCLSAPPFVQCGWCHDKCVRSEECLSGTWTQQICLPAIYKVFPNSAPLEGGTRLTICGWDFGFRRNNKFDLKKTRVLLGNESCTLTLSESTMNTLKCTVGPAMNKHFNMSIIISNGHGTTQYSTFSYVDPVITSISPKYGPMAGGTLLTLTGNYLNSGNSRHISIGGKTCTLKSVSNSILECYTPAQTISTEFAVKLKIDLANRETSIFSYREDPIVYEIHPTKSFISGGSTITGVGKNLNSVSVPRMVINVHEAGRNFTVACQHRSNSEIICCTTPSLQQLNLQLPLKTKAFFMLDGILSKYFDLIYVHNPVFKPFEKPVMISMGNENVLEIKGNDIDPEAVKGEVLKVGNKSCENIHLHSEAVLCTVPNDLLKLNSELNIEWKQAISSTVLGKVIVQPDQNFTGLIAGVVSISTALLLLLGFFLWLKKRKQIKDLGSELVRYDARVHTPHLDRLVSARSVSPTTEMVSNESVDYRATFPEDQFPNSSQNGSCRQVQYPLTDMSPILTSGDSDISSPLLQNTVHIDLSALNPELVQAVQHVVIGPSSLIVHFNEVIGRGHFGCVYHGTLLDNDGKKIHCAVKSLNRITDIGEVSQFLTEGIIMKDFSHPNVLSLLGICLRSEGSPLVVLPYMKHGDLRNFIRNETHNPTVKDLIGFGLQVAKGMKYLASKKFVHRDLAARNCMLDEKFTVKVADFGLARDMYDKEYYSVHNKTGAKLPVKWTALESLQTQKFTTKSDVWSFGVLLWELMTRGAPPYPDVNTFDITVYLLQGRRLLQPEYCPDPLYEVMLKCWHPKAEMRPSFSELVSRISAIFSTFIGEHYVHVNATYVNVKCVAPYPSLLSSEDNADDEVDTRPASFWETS
ATTRIBUTE_MEASURED: pIC50
API: returns pIC50 as number; meaning -log10 of concentration in mol/L.

[in] Give me measured pIC50, please, for this compound: CN(C[C@@H]1COCCO1)S(=O)(=O)Nc1ccc2ccc3ncc(-c4cnn(C)c4)cc3c(=O)c2c1
[out] 9.40

* * *

ASSAY_PROCEDURE: Antiproliferative activity against human GTL16 cells after 72 hrs
RECORDED_CONDITIONS: GTL 16, 72 h
Exercise: for every item that follows, state its recorded IC50.
The reply should be a number in µM, with the unit left off.

[in] Quick one: give measured IC50 for CNS(=O)(=O)Nc1ccc2ccc3ncc(-c4cnn(C)c4)cc3c(=O)c2c1
[out] 0.75

[in] Could you please provide reported IC50 for CCCn1cc(-c2cnc3ccc4ccc(NS(=O)(=O)N(C)C)cc4c(=O)c3c2)cn1 ? Thanks!
[out] 0.78

[in] Respond only with IC50 recorded for CN(C)S(=O)(=O)Nc1ccc2ccc3ncc(-c4cnn(-c5ccccn5)c4)cc3c(=O)c2c1
[out] 1.3

[in] Quick one: give measured IC50 for COCCCN(C)S(=O)(=O)Nc1ccc2ccc3ncc(-c4cnn(C)c4)cc3c(=O)c2c1
[out] 1.5
